Value source: ChEMBL document CHEMBL1156842

Target: Free fatty acid receptor 1 (Homo sapiens, UniProt O14842)
Sequence (O14842 whole entry): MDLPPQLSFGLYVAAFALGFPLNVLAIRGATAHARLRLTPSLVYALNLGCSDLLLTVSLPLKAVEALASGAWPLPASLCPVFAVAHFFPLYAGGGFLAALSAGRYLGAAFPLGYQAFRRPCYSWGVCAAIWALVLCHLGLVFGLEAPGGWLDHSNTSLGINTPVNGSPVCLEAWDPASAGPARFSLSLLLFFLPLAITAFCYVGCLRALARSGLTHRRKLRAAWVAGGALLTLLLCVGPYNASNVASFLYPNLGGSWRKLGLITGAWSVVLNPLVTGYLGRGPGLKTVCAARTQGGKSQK
Test: Agonist activity at human GPR40 at 40 uM by FLIPR assay in presence of 1% BSA
Type: functional
quantity: Activity (%)

1) O=C1CCC(Cc2ccc(Oc3ccc(Cl)cc3Cl)cc2)C(=O)N1 (centres undefined) = 6
2) O=C1NC(=O)C(Cc2ccc(Oc3ccc(C(F)(F)F)cc3Cl)c3ccccc23)S1 (centres undefined) = 46
3) O=C1COC(Cc2ccc(Oc3ccc(Cl)cc3Cl)cc2)C(=O)N1 (centres undefined) = 23
4) CN1C(=O)NC(=O)C1Cc1ccc(Oc2ccc(Cl)cc2Cl)cc1 (centres undefined) = 2
